Cited source for all entries: patent US20200190189A1

- test_target: T1, Human CD3εδ heterodimeric Fc fusion (Hu CD3εδ Fc) (human)
- T1 chain 1: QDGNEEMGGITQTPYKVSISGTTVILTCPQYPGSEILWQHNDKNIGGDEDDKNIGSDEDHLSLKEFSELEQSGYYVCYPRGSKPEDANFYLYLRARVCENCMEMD
- T1 chain 2: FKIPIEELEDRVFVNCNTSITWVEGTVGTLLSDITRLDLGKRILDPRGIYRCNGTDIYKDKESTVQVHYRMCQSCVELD
- protocol_details: IgG, avid; method not named at the table (ForteBio BLI in Methods)
observation_type: Kd (nM)
Numeric answer only, unit nM assumed.

Examples with answers:
Name the recorded Kd for ADI-26908 IgG1 (antibody, V domains shown) VH: QVQLVQSGAEVKKPGASVKVSCKASGFNIKDYYMHWVRQAPGQRLEWMGWIDLEEGNTIYDAKFQGRVTITRDTSASTAYMELSSLRSEDTAVYYCARDAYGRYFYDVWGQGTLVTVSS VL: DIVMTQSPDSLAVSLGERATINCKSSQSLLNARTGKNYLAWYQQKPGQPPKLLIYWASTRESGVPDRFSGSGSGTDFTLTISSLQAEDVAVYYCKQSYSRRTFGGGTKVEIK . 1.5

Now the same for ADI-26913 IgG1 (antibody, V domains shown) VH: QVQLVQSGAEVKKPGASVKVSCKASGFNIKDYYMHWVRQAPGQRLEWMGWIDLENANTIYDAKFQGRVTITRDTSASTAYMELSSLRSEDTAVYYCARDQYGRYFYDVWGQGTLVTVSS VL: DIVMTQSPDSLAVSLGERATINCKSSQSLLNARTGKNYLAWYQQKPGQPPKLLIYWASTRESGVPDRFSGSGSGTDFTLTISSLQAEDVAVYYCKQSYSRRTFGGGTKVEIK 2.2

Now the same for ADI-26915 IgG1 (antibody, V domains shown) VH: QVQLVQSGAEVKKPGASVKVSCKASGFNIKDYYMHWVRQAPGQRLEWMGWIDLEEGNTIYDAKFQGRVTITRDTSASTAYMELSSLRSEDTAVYYCARDVLGRYFYDVWGQGTLVTVSS VL: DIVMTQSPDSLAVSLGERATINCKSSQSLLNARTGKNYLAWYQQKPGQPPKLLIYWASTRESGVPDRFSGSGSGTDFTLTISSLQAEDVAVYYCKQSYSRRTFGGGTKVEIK 3.3

Now the same for ADI-26906 IgG1 (antibody, V domains shown) VH: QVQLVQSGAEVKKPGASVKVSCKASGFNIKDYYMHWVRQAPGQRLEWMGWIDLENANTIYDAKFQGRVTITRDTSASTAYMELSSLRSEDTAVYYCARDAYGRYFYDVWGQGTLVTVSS VL: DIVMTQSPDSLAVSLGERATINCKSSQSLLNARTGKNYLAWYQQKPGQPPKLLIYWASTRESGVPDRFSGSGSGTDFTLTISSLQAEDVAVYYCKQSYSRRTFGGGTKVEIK 1.6

Continue with the binder presented below.
Name the recorded Kd for ADI-22523 IgG1 (antibody, V domains shown) VH: QVQLVQSGAEVKKPGASVKVSCKASGFNIKDYYMHWVRQAPGQRLEWMGWIDLENGNTIYDPKFQGRVTITRDTSASTAYMELSSLRSEDTAVYYCARDGYGRYFYDVWGQGTLVTVSS VL: DIVMTQSPDSLAVSLGERATINCKSSQSLLNSRTGKNYLAWYQQKPGQPPKLLIYWASTRESGVPDRFSGSGSGTDFTLTISSLQAEDVAVYYCKQSYSRRTFGGGTKVEIK . 0.2
